Hello, the source for this data is the RNAGym collection of RNA variant scans (doi:10.1073/pnas.2313332121), in case you need it.

B1: TPR t1 (parent)
chain: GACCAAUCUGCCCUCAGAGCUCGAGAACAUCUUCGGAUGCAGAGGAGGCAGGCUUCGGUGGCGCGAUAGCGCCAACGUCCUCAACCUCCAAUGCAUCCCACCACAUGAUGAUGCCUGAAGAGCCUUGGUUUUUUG

Variants of: B1
Assay: polymerase ribozyme fitness, log enrichment relative to wild type (log ratio); higher = more active; in vitro selection for triplet polymerase activity
Recorded polymerase ribozyme fitness (log ratio), one value per entry.
The answer should be a number; do not append a unit.

{"itemSequence": "GACCAAUCUGCUCUCAGAGCUCGAGAACAUCUUCGGAUGCAGAGGUGGCAUGCUUCGGUGGCGCGAUAUCGCCUACGUCCUCAACCUCCAAUGCAUCCCACCACAUGAUGAUGCCUGAAGAGCCUUGGUUUUUUG [C12U A46U G51U G69U A74U]", "polymerase ribozyme fitness (log ratio)": -3.04}
{"itemSequence": "GACCAAUCUGCCCUCAGAGCUCGAGAACAUCUUCGGAUGCAGAGGAGGCAGGCUUCUGUGGCGCGAUAGCGCCAACGUCCUCAACCUCCAAUGCAUCCCACCACAUGAUGAUGCCUGAAGAGCCUUGAUUUUUUG [G57U G128A]", "polymerase ribozyme fitness (log ratio)": -1.33}

Enquiry: I have this variant here, GACCAAUCUGCUCUCAGAGCUCGAGAACAUCCUCGGAUGCAGAGGAGGCAGGCUUCGGUGGCGCGAUAUCGCCAAGUUCUUCAGCCUCCAAUGCAUCCCACCACAUGAUGAUGCCUGAAGAGCCUUGGUUUUUUG [C12U U32C G69U C76G G77U C80U A84G] , and I need its recorded polymerase ribozyme fitness (log ratio).
Return: -4.98
